Hello, the source for this data is patent US7647217B2, in case you need it.

Test system: IBABP mRNA in HT29-FXRFL cells
Assay: Northern blot of IBABP mRNA induction in HT29 stable cell lines
Assay type: cell-based, human
Details: HT29-FXRFL, overnight treatment
parameter: concentration of maximal activation of the IBABP gene (µM)
The answer is to be given in µM; state only the numeric part.

>  <compound>
C[C@H](CCC(=O)O)[C@H]1CC[C@H]2[C@@H]3[C@H](O)C[C@@H]4C[C@H](O)CC[C@]4(C)[C@H]3CC[C@]12C [CDCA, chenodeoxycholic acid, reference compound]

>  <study_target>
IBABP mRNA in HT29-FXRFL cells

>  <observed_value>
100

$$$$
>  <compound>
CC(C)c1onc(-c2c(Cl)cccc2Cl)c1COc1ccc(/C=C/c2cccc(C(=O)O)c2)c(Cl)c1 [GW4064, reference compound]

>  <study_target>
IBABP mRNA in HT29-FXRFL cells

>  <observed_value>
1

$$$$
>  <compound>
COC(=O)/C=C/c1cccc(N(Cc2ccc(-c3ccc4c(c3)OCO4)cc2)C(=O)C2CCCCC2)c1

>  <study_target>
IBABP mRNA in HT29-FXRFL cells

>  <observed_value>
1

$$$$
>  <compound>
COC(=O)/C=C/c1cccc(N(Cc2ccc(/C=C/c3ccccc3)cc2)C(=O)C2CCCCC2)c1

>  <study_target>
IBABP mRNA in HT29-FXRFL cells

>  <observed_value>
1

$$$$

Please examine the following record next.
Task: Supply measured concentration of maximal activation of the IBABP gene of COC(=O)/C=C/c1cccc(N(Cc2ccc(-c3ccc(N(C)C)cc3)cc2)C(=O)C2CCCCC2)c1 in your reply.
Result: 1

---

Recorded pEC50 for the following molecules
Molecular target: FXR (Mus musculus, UniProt Q60641)
Construct: expression vector containing the full-length FXR receptor
Sequence (Q60641 whole entry): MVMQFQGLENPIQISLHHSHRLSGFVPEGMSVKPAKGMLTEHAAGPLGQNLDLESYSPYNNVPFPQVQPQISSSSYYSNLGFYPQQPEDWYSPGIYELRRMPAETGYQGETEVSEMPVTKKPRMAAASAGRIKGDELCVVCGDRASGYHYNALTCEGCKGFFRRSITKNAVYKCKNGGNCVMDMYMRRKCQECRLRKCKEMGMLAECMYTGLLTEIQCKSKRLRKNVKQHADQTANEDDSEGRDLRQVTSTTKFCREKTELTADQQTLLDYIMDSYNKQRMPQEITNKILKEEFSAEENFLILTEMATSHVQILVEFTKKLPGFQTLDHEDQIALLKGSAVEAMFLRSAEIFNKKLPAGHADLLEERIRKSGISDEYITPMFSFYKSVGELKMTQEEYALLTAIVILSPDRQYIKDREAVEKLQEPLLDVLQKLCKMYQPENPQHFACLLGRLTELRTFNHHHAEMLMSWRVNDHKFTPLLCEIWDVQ
Sequence (P19793 whole entry partner): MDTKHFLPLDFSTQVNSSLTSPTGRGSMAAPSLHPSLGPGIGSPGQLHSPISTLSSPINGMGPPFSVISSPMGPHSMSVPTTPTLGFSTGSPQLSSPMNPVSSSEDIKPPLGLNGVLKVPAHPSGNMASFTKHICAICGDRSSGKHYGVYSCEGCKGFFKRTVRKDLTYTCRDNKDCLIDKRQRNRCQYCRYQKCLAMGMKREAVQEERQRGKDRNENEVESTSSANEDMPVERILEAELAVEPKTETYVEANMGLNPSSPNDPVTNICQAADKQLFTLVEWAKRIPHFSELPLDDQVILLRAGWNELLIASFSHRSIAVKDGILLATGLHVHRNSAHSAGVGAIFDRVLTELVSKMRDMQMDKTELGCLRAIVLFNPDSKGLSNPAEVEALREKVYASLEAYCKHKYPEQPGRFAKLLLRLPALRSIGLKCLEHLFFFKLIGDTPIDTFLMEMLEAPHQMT
Experiment: Cell-based screen: full-length FXR expression vector co-transfected with hormone response element luciferase reporter
Settings: FXR agonist activity
Scale for pEC50: -log10 of concentration given in mol/L; no unit attached.

Task: Supply measured pEC50 of COC(=O)/C=C/c1cccc(N(Cc2ccc(/C=C/c3ccccc3)cc2)C(=O)C2CCCCC2)c1 [fexarene] in your reply.
Result: 7.44

Task: Supply measured pEC50 of COC(=O)/C=C/c1cccc(N(Cc2ccc(-c3ccc(N(C)C)cc3)cc2)C(=O)C2CCCCC2)c1 [fexaramine] in your reply.
Result: 7.60

Task: Supply measured pEC50 of COC(=O)/C=C/c1cccc(N(Cc2ccc(-c3ccc(C(C)(C)C)cc3)cc2)C(=O)C(C)C)c1 [SRI-2] in your reply.
Result: 6.46

Task: Supply measured pEC50 of COC(=O)/C=C/c1cccc(N(Cc2ccc(-c3ccccc3OC)cc2)C(=O)C(C)C)c1 [SRI-1] in your reply.
Result: 6.42

Task: Supply measured pEC50 of COC(=O)/C=C/c1cccc(N(Cc2ccc(-c3ccc4c(c3)OCO4)cc2)C(=O)C2CCCCC2)c1 [fexarine] in your reply.
Result: 7.42

---

Biological target: GAL4-FXR LBD (Rattus norvegicus)
Construct: expressed in transfected cells; host or cells: CV-1 (monkey)
Sequence (Q62735 245-469 limits assumed): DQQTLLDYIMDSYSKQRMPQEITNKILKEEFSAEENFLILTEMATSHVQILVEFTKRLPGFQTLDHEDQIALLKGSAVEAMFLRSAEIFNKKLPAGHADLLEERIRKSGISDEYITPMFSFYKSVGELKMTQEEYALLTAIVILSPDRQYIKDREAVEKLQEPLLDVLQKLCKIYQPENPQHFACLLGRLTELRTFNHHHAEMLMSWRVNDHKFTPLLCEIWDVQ
Assay: GAL4 DBD-FXR LBD chimeric receptor transcriptional activation assay (with/without RXR)
Format: cell-based
Details: in the presence and absence of RXR
parameter: activation of chimeric FXR construct

Example entries and their recorded answers appear below.
>  <molecule>
COC(=O)/C=C/c1cccc(N(Cc2ccc(-c3ccccc3OC)cc2)C(=O)C(C)C)c1 [SRI-1]

>  <activation of chimeric FXR construct>
little or no activity

$$$$
>  <molecule>
COC(=O)/C=C/c1cccc(N(Cc2ccc(-c3ccc4c(c3)OCO4)cc2)C(=O)C2CCCCC2)c1 [fexarine]

>  <activation of chimeric FXR construct>
activate

$$$$
>  <molecule>
CC(C)c1onc(-c2c(Cl)cccc2Cl)c1COc1ccc(/C=C/c2cccc(C(=O)O)c2)c(Cl)c1 [GW4064, reference compound]

>  <activation of chimeric FXR construct>
activate

$$$$
>  <molecule>
COC(=O)/C=C/c1cccc(N(Cc2ccc(-c3ccc(N(C)C)cc3)cc2)C(=O)C2CCCCC2)c1 [fexaramine]

>  <activation of chimeric FXR construct>
activate

$$$$

Task: Supply measured activation of chimeric FXR construct of COC(=O)/C=C/c1cccc(N(Cc2ccc(/C=C/c3ccccc3)cc2)C(=O)C2CCCCC2)c1 [fexarene] in your reply.
Result: activate

Task: Supply measured activation of chimeric FXR construct of COC(=O)/C=C/c1cccc(N(Cc2ccc(-c3ccc(C(C)(C)C)cc3)cc2)C(=O)C(C)C)c1 [SRI-2] in your reply.
Result: little or no activity
